# assayName: Stability of the compound at 136 uM after 4 hrs in presence of Pseudomonas aeruginosa elastase
# Assay type: ADME
measuredQuantity: Stability

{"molSmiles": "CC[C@H](C)[C@H](NC(=O)[C@H](CCCNC(=N)N)NC(=O)[C@H](CCC(N)=O)NC(=O)[C@@H](NC(=O)[C@@H](NC(=O)[C@H](CCCNC(=N)N)NC(=O)[C@H](CCCCN)NC(=O)[C@H](Cc1ccccc1)NC(=O)[C@H](CCC(=O)O)NC(C)=O)[C@@H](C)CC)C(C)C)C(=O)N[C@@H](CCCCN)C(=O)N[C@@H](CC(=O)O)C(=O)N[C@@H](Cc1ccccc1)C(=O)N[C@@H](CC(C)C)C(=O)N[C@@H](CCCNC(=N)N)C(=O)N[C@@H](CC(N)=O)C(=O)N[C@@H](CC(C)C)C(=O)N[C@H](C(N)=O)C(C)C", "measuredResult": "Unstable"}
{"molSmiles": "CC[C@H](C)[C@H](NC(=O)[C@H](CCCNC(=N)N)NC(=O)[C@H](CCC(N)=O)NC(=O)[C@@H](NC(=O)[C@@H](NC(=O)[C@H](CCCNC(=N)N)NC(=O)[C@H](CCCCN)NC(=O)[C@H](Cc1ccccc1)NC(=O)[C@@H](N)CCC(=O)O)[C@@H](C)CC)C(C)C)C(=O)N[C@@H](CCCCN)C(=O)N[C@@H](CC(=O)O)C(=O)N[C@@H](Cc1ccccc1)C(=O)N[C@@H](CC(C)C)C(=O)N[C@@H](CCCNC(=N)N)C(=O)N[C@@H](CC(N)=O)C(=O)N[C@@H](CC(C)C)C(=O)N[C@H](C(=O)O)C(C)C", "measuredResult": "Unstable"}
